assay: Microsomal stability, mouse liver microsomes; assay type: in vitro ADME; conditions: pH 7.4, 1 µM compound, 0.5 mg/mL microsomal protein, NADPH, 37 °C, read-out: Phase I metabolic stability t1/2, MLMs

>  <sample.smiles>
Cc1[nH]c2ccccc2c1CC(=O)N[C@@H](Cc1ccccc1)c1nccn1-c1ccccc1

>  <half-life at 1 µM [s]>
42

$$$$
>  <sample.smiles>
O=C(Cc1c[nH]c2ccc(O)cc12)N[C@@H](Cc1ccccc1)c1ncccc1-c1ccc(Cl)cc1

>  <half-life at 1 µM [s]>
186

$$$$
>  <sample.smiles>
Cc1[nH]c2ccccc2c1CC(=O)N[C@@H](Cc1ccccc1)c1nccn1-c1ccc(-c2nnn[nH]2)cc1

>  <half-life at 1 µM [s]>
54

$$$$
>  <sample.smiles>
Cc1[nH]c2ccccc2c1CC(=O)N[C@@H](Cc1ccccc1)c1ncccc1-c1ccccc1

>  <half-life at 1 µM [s]>
60

$$$$
